Biological target: Pin1 (Homo sapiens, UniProt Q13526)
Construct: human Pin1 with C-terminal His tag (pET-30a-pin1, E. coli BL21)
Sequence (Q13526 whole entry): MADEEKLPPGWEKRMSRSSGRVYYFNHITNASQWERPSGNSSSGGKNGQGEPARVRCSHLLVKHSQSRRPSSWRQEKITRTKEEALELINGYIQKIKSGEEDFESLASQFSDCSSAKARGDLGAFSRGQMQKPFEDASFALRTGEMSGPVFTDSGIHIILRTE
Test: SPR (Biacore S200, Pin1 immobilized on CM5); also PPIase assay IC50 […]
Type: binding

compound-smiles	unit-name	Kd
NS(=O)(=O)c1ccc(-c2[nH]c3ccc(Cl)cc3c2-c2ccc(Cl)cc2)cc1	µM	9.79
